Target: T1, human IL4 (human, UniProt P05112 25-153, biotinylated in the SPR and competition assays (sites not given))
T1 sequence: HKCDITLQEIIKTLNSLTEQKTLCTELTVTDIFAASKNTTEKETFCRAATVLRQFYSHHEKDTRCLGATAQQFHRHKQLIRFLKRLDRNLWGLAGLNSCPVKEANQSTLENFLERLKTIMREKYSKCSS
Assay: cell-based or functional assay
Value Type: A549 TARC Inhibition IC50 (pM)
Numbers only, in pM.

C06_43G2 (designed binder, ankyrin repeat protein; His-tagged, IMAC-purified) DLGKKLLEAARAGQDDEVRILMANGADVNAKDVTGETPLHLASWEGHLEIVEVLLKHGADVNAQDLFGITPLHLAAATDGHLEIVEVLLKNGADVNATDSNGFTPLHLAASYGHLEIVDVLLKNGADVNAHDFDGFTPLHLAASWGHLEIVEVLLKYGADVNAQDKFGKTAFDISIDNGNEDLAEILQKLN	262
C06_42A11 (designed binder, ankyrin repeat protein; His-tagged, IMAC-purified) DLGKKLLEAASVGQDDEVHILMANGADVNATDAWGLTPLHLAALLGHLEIVEVLLKHGADVNAHDETGFTPLHLAAVEGHLEIVEVLLKYGADVNASDILGRTPLHLAANFGHLEIVEVLLKHGADVNAQDKFGKTAFDISIDNGNEDLAEILQKLN	325

Okay, next one:
Per the records, this binder ( C06_53G6 (designed binder, ankyrin repeat protein; His-tagged, IMAC-purified) NLGKKLLEAARAGQDDEVRILMANGADVNATDDWGDTLLHLAATDGHLEIVEVLLKYGADVNANDAIGDTPLHLAALYGHLEIVEVLLKYGADVNATDLHGFTPLHLAAFWGHLEIVEVLLKHGADVNAQDKFGKTAFDISIDNGNEDLAEILQKLN ) has A549 TARC Inhibition IC50 equal to 135
